Reference source for all entries: patent US20190225687A1

Recorded pIC50 values for a group of binders are listed next.
- target: T1, human LAG3 of the LAG3 and MHC II binding assay kit (Cisbio, 64ICP03PEG) (human, UniProt P18627 23-450, limits assumed)
- T1 construct: Bought kit reagent
- T1 sequence (looked up): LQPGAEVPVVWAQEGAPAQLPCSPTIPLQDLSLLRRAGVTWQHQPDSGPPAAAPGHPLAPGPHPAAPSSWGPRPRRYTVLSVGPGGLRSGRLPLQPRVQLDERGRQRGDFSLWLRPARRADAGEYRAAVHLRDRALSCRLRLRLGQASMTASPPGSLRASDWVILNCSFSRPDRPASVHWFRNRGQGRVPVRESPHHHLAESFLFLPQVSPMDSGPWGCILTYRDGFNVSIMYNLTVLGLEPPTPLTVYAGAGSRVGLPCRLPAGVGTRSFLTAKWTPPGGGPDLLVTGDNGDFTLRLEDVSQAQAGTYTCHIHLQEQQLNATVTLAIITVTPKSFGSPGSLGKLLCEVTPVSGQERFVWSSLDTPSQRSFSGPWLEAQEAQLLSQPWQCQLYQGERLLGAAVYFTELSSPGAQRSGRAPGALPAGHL
- measurement description: TR-FRET LAG3/MHC II binding assay (Cisbio); blocks MHC II
Scale: pIC50 equals -log10([C]), with [C] in mol/L.

Look over these answered cases.
- binder: "147H 3550 (antibody, V domains shown) VH: EVQLVQSGAEVKKPGASVKVSCKASGYTFTNYWLGWIKQAPGQGLEWIGDIYPGGDYINYNEKFKGKATLTADTSISTAYMELSRLRSDDTAVYYCARPNLPKDHWGQGTTVTVSS VL: DIVMTQSPLSLPVTPGEPASISCRSSKSLLHSNAITYLYWYLQKPGQSPQLLIYQVSNLASGVPDRFSGSGSGTDFTLKISRVEAEDVGVYYCAQYLELPWTFGGGTKVEIK"
  pIC50: 9.41
- binder: "147H 3792 (antibody, V domains shown) VH: EVQLVQSGAEVKKPGASVKVSCKASGYTFTNYWLGWIKQAPGQGLEWIGDIYPGGDYIVYNEKFKGKATLTADTSISTAYMELSRLRSDDTAVYYCARPNLPGDYWGQGTTVTVSS VL: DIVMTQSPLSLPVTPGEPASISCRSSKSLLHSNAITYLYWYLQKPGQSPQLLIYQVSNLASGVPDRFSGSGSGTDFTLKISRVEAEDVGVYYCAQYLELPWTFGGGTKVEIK"
  pIC50: 9.14

For the binder 147H 3421 (antibody, V domains shown) VH: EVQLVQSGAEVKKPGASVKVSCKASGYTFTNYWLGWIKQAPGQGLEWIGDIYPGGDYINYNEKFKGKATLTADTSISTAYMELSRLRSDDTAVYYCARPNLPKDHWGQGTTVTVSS VL: DIVMTQSPLSLPVTPGEPASISCRSSKSLLHSNAITYLYWYLQKPGQSPQLLIYQVSNLASGVPDRFSGSGSGTDFTLKISRVEAEDVGVYYCAQNLELPWTFGGGTKVEIK , what pIC50 is on record?
8.82
